test: physchem; settings: sodium phosphate buffer, pH 7.4
Experimental endpoint: solubility kinetic at 24 h (µM)
Write down the numeric answer in µM and omit the unit.

Quick check: solubility kinetic at 24 h of "CNC(=O)c1c(-c2ccc(O)cc2)oc2ccc(O)c(CN3CCCCC3)c12" ? 74

----------
test: Half life in overnight fasted Sprague-Dawley rat at 5 mg/kg measured for 0.25 to 24 hrs; type: ADME, organism-based; conditions: in vivo, time 0.25-24 hrs
Experimental endpoint: half-life (min)
Write down the numeric answer in min and omit the unit.

Quick check: half-life of "C[C@H]1COC2(CCN(c3nc(=O)c4cc(C(F)(F)F)cc([N+](=O)[O-])c4s3)CC2)O1" ? 72

Quick check: half-life of "O=c1nc(N2CCC3(CC2)OCCO3)sc2c([N+](=O)[O-])cc(C(F)(F)F)cc12" ? 90

Value source: ChEMBL document CHEMBL5137025
